Assay: chemical genetic growth profiling, strain panel (AID 1159580);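 note: tested at 20 µM; growth read once vehicle control cultures reached saturation at 30 °C; 1 = growth at the plate median or of vehicle wells; lower values mean less growth of the strain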
Conditions: S. cerevisiae deletion strains, growth OD, strain wtn01, hits give low values
The campaign covered roughly 5,500 compounds. About 2,000 (36%) were called active. Roughly 18% stayed inconclusive and do not appear here. This is one part of the list.
Catalogue of normalized growth readings, one per entry.
Measurement Label: normalized growth

>>> result_value("C=C(C)C1Cc2c(ccc3c(=O)c4c(oc23)COc2cc(OC)c(OC)cc2-4)O1 (stereo unspecified)")
1.03
>>> result_value("CC(C)OC(=O)Nc1cccc(Cl)c1")
0.976
>>> result_value("O=C(/C=C/c1ccc(O)cc1)c1ccc(O)cc1O")
0.94
>>> result_value("O=C(/C=C/c1ccccc1)c1ccc(O[C@@H]2O[C@H](CO)[C@@H](O)[C@H](O)[C@H]2O)cc1O")
0.859
>>> result_value("Cc1cc(O)c2c(c1)C(=O)c1cccc(O)c1C2=O")
0.97
>>> result_value("O=c1c(O)cccc2cc(O)c(O)c(O)c12")
0.761
>>> result_value("C=C(C)C1Cc2c(ccc(C(=O)O)c2O)O1 (stereo unspecified)")
0.972
>>> result_value("CC(NC(C)(C)C)C(=O)c1cccc(Cl)c1 (stereo unspecified)")
1.03
>>> result_value("CC(C)[C@@H]1CC[C@@H](C)C[C@H]1OC(=O)c1ccccc1")
1
>>> result_value("O=C(/C=C/c1ccccc1)c1c(O)cc(O)cc1O")
1.01
>>> result_value("COc1ccc(/C=C/c2cc(O)cc(O[C@@H]3O[C@H](CO)[C@@H](O)[C@H](O)[C@H]3O)c2)cc1")
1.01
>>> result_value("COc1ccc(-c2c(OC)c3c(OC)c4c(cc3oc2=O)OC(C)(C)C=C4)cc1")
1.07
>>> result_value("CC(=O)Oc1c(C)c(C)c2c(c1C)CCC(C)(CCCC(C)CCCC(C)CCCC(C)C)O2 (stereo unspecified)")
0.977
>>> result_value("Cc1ccc(O)c(C(CCN(C(C)C)C(C)C)c2ccccc2)c1 (stereo unspecified)")
0.988
>>> result_value("O[C@H]1[C@H](O)[C@@H](O)C2OC[C@H]1O2")
0.943
>>> result_value("COC(=O)C(O)[C@H]1C(C)(C)[C@@H](OC(C)=O)[C@@H]2CC3=C4CC(=O)O[C@@H](c5ccoc5)[C@]4(C)CCC3[C@@]1(C)C2=O (stereo partly specified)")
0.995
>>> result_value("CC(=O)OC[C@@]1(O)C[C@@]23CCC4c5ccoc5CC[C@]4(C)C2CC[C@@H]1C3 (stereo partly specified)")
0.948
>>> result_value("COC1=CC23CCCN2CCc2cc4c(cc2C3C1O)OCO4 (stereo unspecified)")
1.02
>>> result_value("COc1cc([C@@H]2c3cc4c(cc3[C@H](O)[C@H]3COC(=O)[C@H]23)OCO4)cc(OC)c1OC")
1.03
>>> result_value("O=C(O)CC[N+](=O)[O-]")
1.01
>>> result_value("C[C@]12[C@H](O)CC3C(CC[C@@H]4C[C@@H](O)CC[C@]34C)[C@@]1(O)CC[C@@H]2C1=CC(=O)OC1 (stereo partly specified)")
0.998

----------
Catalogue of normalized growth readings, one per entry.
Assay: chemical genetic growth profiling, strain panel (AID 1159580);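 note: tested at 20 µM; growth read once vehicle control cultures reached saturation at 30 °C; 1 = growth at the plate median or of vehicle wells; lower values mean less growth of the strain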
Details: S. cerevisiae deletion strains, growth OD, locus YPR025C, strain CCL1, hits give low values
About 2,000 (36%) of roughly 5,500 compounds were called active. About 18% were inconclusive and are not listed. This is one part of the list.
Measurement Label: normalized growth

>>> result_value("O=C(/C=C/c1ccc(Cl)cc1)Nc1cccc(Cl)c1")
0.952
>>> result_value("Cc1cc2nc3c(Cl)c(O)c4ccccc4c3nc2cc1C")
0.957
>>> result_value("COC(=S)Nc1cc(Cl)cc(Cl)c1")
0.936
>>> result_value("Cc1cc(C)c2cc(C(=O)NCCNc3ccc(C(F)(F)F)cn3)[nH]c2c1")
0.98
>>> result_value("COC(=O)c1sccc1S(=O)(=O)Nc1cc(C(F)(F)F)cc(C(F)(F)F)c1")
0.969
>>> result_value("CC(C)(C)c1ccc(-c2cc(NC(=O)c3ccc(Cl)cc3)n[nH]2)cc1")
1
>>> result_value("O=S(=O)(Nc1cc(C(F)(F)F)cc(C(F)(F)F)c1)c1ccc(Cl)s1")
0.929
>>> result_value("FC(F)(F)c1c2c(nc3cc(-c4ccco4)nn13)CCC2")
0.968
>>> result_value("CCOC(=O)C(O)(c1ccc(NC(=O)c2ccc(Cl)c(Cl)c2)cc1)C(F)(F)F (stereo unspecified)")
1
>>> result_value("CC(C)OC(=O)Nc1cc(Cl)cc(Cl)c1")
0.978
>>> result_value("CCOC(=O)c1cnc(-c2ccccn2)[nH]c1=O")
0.953
